# measured_target: REFACTO® (recombinant factor VIII-like polypeptide consisting of amino acids 1-743 and 1638 through 2332 of human factor VIII) (human) (UniProt P00451)
# Sequence (P00451 20-762, chain 1 of 2): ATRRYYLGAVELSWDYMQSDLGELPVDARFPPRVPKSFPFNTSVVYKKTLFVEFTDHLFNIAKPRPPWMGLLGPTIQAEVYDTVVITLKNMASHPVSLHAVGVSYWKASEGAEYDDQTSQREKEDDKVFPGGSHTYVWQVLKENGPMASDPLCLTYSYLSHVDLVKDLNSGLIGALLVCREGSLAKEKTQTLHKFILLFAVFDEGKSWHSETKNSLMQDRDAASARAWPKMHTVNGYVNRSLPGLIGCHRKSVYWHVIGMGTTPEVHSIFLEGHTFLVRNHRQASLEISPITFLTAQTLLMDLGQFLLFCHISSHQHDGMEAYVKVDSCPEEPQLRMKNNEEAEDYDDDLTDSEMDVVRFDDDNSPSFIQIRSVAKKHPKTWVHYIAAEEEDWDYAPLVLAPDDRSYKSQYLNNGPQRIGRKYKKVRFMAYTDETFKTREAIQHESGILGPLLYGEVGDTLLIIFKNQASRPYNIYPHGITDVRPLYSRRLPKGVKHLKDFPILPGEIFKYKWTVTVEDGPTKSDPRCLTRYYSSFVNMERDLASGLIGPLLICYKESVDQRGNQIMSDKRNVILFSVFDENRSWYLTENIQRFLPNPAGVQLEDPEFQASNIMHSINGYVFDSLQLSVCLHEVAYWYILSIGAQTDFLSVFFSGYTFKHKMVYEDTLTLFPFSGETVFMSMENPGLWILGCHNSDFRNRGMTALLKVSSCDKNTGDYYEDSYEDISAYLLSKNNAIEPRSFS
# Sequence (P00451 1657-2351, chain 2 of 2): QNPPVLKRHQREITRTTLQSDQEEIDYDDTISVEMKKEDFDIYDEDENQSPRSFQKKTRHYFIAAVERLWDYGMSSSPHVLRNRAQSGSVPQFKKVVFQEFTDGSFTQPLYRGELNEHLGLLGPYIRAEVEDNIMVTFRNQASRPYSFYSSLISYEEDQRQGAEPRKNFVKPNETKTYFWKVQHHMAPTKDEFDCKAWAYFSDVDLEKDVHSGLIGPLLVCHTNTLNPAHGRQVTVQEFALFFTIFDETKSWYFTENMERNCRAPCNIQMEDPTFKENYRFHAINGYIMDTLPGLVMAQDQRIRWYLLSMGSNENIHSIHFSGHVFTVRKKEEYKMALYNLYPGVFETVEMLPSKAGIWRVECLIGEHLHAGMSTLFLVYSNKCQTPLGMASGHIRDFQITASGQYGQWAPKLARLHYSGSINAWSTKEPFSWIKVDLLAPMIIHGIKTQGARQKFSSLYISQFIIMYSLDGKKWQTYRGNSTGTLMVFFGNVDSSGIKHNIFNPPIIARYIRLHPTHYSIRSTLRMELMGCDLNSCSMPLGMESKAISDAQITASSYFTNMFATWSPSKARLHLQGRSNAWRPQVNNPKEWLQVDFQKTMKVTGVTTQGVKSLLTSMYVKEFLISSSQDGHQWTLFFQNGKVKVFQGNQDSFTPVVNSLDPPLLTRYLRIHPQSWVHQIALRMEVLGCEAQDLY
# procedure_text: phage ELISA, with target against without target
assay_readout: R (ratio of the ELISA score with target present to the ELISA score without target)

Use the examples below as a reference point.
HLCFAWFRPCDA [TN8 isolate 12 (SEQ ID NO: 17)]    8
FCWVFPFNHCD [TN9 isolate 02 (SEQ ID NO: 27)]    8
HLCGAWFRPCDA [TN8 isolate 02 (SEQ ID NO: 16)]    6
HPCGAWLRPCYN [TN8 isolate 08 (SEQ ID NO: 20)]    20
FCWVFPFHHCF [TN9 isolate 06 (SEQ ID NO: 30)]    6
HACGSWFRPCHA [TN8 isolate 07 (SEQ ID NO: 15)]    6
HPCGSWFNPCAH [TN8 isolate 02 (SEQ ID NO: 13)]    8
HRCGSWLHPCLA [TN8 isolate 11/G10 (SEQ ID NO: 21)]    6
HSCGSWLFPCFA [TN7 isolate A06]    10
FCWVFQFRHCH [TN9/1 isolate … (SEQ ID NO: 77)]    8

1: RLCSWVSPCSA [TN7 isolate C5/G10]
2: FCWVFPFNHCS [TN9 isolate 12 (SEQ ID NO: 28)]
Of 1 and 2 , whose reported R (ratio of the ELISA score with target present to the ELISA score without target) is numerically smaller? Mark your answer with the label of the selected entry.
1
(1: 10, 2: 18)
